target: TNKS2 (Homo sapiens (Human)); experiment: Biochemical IC50 TNKS2; settings: read-out: Biochemical IC50 TNKS2
Sequence (Q9H2K2 whole entry): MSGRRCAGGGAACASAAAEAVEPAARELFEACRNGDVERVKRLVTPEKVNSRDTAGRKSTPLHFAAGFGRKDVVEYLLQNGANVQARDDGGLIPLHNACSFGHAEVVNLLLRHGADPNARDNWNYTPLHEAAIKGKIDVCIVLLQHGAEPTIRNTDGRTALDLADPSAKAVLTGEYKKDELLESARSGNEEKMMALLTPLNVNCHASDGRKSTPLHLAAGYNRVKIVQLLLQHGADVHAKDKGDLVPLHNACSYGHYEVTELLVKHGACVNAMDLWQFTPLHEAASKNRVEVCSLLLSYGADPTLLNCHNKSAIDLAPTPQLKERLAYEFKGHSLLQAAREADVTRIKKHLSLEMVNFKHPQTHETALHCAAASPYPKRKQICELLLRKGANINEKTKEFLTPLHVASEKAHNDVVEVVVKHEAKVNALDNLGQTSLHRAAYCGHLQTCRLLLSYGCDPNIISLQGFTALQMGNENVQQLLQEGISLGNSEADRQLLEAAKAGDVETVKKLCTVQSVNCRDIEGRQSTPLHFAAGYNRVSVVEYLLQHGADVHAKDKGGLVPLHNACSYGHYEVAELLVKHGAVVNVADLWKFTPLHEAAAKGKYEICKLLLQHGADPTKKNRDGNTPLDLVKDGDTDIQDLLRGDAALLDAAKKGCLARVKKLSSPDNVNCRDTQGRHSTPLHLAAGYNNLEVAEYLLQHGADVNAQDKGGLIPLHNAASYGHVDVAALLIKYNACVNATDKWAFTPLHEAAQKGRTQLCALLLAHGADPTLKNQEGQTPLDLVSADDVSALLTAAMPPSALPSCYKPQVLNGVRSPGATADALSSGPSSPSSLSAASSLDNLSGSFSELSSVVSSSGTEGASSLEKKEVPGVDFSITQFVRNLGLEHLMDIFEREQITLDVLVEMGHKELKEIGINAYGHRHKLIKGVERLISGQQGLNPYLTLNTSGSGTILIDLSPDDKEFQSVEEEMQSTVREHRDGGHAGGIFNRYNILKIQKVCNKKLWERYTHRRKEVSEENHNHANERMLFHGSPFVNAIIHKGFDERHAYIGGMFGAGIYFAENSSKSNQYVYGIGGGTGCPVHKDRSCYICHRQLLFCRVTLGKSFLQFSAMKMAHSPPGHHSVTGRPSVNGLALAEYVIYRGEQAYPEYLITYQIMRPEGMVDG
Measured Parameter: IC50
Give the figure together with its unit, number first.

// query Using the record for `CCOc1ccc(-c2nnc(C34CC(NC(=O)c5ccnc6cccnc56)(C3)C4)n2-c2ccccc2)nc1` , state its measured IC50.
// result 1.4 nM

// query Using the record for `CCOc1ccc(-c2nnc([C@H]3C[C@H](NC(=O)c4ccccn4)C3)n2-c2ccc(Cl)s2)nc1` , state its measured IC50.
// result 12 nM

// query Using the record for `O=C(N[C@H]1C[C@H](c2nnc(-c3nccs3)n2-c2ccncc2)C1)c1cccc2cccnc12` , state its measured IC50.
// result 16 nM

// query Using the record for `CCOc1ccc(-c2nnc([C@H]3C[C@H](NC(=O)c4cccc5cn[nH]c45)C3)n2-c2ccccc2F)nc1` , state its measured IC50.
// result 21 nM

// query Using the record for `CCOc1ccc(-c2nnc([C@H]3C[C@H](NC(=O)c4ccc5ncccc5n4)C3)n2-c2cccnc2)nc1` , state its measured IC50.
// result 14 nM

// query Using the record for `CCOc1ccc(C(=O)N[C@H]2C[C@H](c3nnc(-c4ccncn4)n3-c3ccccc3Cl)C2)nc1` , state its measured IC50.
// result 4.8 nM

// query Using the record for `CCOc1ccc(-c2nnc([C@H]3C[C@H](NC(=O)c4ccnc5cccnc45)C3)n2-c2ccccn2)nc1` , state its measured IC50.
// result 5.8 nM
